// data source = paper PMC6889545

assay: Plasma pharmacokinetics of the peptides after a single dose; type: in vivo; details: mouse; 8-week-old male CD1 mice, single intravenous dose 12.5 mg/kg, plasma 0-24 h, LC-MS/MS, WinNonlin 6.1; read-out: AUC0-inf in plasma
Non-standard residues stand in square brackets, D forms with d. Residues, ends and D or L forms follow the SMILES beside them.
quantity: AUC(0-inf) (ng·h/mL)
Answers are plain numbers, in ng·h/mL.

Would you mind telling me what AUC(0-inf) value was observed for CC(C)C[C@H](NC(=O)[C@@H](NC(=O)[C@H](Cc1c[nH]c2ccccc12)NC(=O)[C@@H]1CCCN1C(=O)[C@H](CC(N)=O)NC(=O)[C@H](Cc1c[nH]cn1)NC(=O)[C@@H]1CCCN1C(=O)[C@H](CC(C)C)NC(=O)[C@H]1CCCN1)C(C)C)C(=O)N[C@@H](C)C(=O)N[C@@H](C)C(=O)N[C@H](Cc1c[nH]c2ccccc12)C(=O)O [PLP peptide, reference compound] (H-[dP]LPHNPWVLAA[dW]-OH) ?
14100

* * *

assay: Plasma pharmacokinetics of the peptides after a single dose; format: in vivo; settings: mouse; 8-week-old male CD1 mice, single intravenous dose 12.5 mg/kg, plasma 0-24 h, LC-MS/MS, WinNonlin 6.1; read-out: AUC0-last in plasma
Non-standard residues stand in square brackets, D forms with d. Residues, ends and D or L forms follow the SMILES beside them.
quantity: AUC(0-t) (ng·h/mL)
Give bare numbers, in ng·h/mL.

Would you mind telling me what AUC(0-t) value was observed for CC(C)C[C@H](NC(=O)[C@@H](NC(=O)[C@H](Cc1c[nH]c2ccccc12)NC(=O)[C@@H]1CCCN1C(=O)[C@H](CC(N)=O)NC(=O)[C@H](Cc1c[nH]cn1)NC(=O)[C@@H]1CCCN1C(=O)[C@H](CC(C)C)NC(=O)[C@H]1CCCN1)C(C)C)C(=O)N[C@@H](C)C(=O)N[C@@H](C)C(=O)N[C@H](Cc1c[nH]c2ccccc12)C(=O)O [PLP peptide, reference compound] (H-[dP]LPHNPWVLAA[dW]-OH) ?
14100
